- Test system: Onchocerca lienalis
- experiment-summary: MMV: Percent motility assay at a compound concentration of 7.8e-7 M. Activity score legend: 3: Active, 2: Moderately active; 1: Inactive, 0: Toxic
- Assay type: functional
- condition-description: at 0.78 µM
Measured Motility of individual entries
Write it as a number; the unit % goes unstated.

Item O=C(O)C1Cc2c([nH]c3ccccc23)C(c2ccc(Cl)cc2Cl)N1 (stereo not drawn) has what recorded Motility?
100

What value of measured Motility is listed for COc1ccc(C2NCCc3c2[nH]c2ccccc32)cc1CN1CCN(c2ccc(F)cc2)CC1.Cl (stereo not drawn) ?
100

Would you mind telling me what Motility value was observed for Cc1ccc(CN2CCC(C(=O)Nc3ccc(-c4cc5ccccc5[nH]4)cc3)CC2)o1 ?
100

---

Overview of reported Motility across a group of molecules:
- System: Onchocerca lienalis
- experiment-summary: MMV: Percent motility assay at a compound concentration of 7.8e-7 M. Activity score legend: 3: Active, 2: Moderately active; 1: Inactive, 0: Toxic
- Assay type: functional
- condition-description: at 0.78 µM
Form entry: value (%) — number only.

Cc1cccc(Nc2nc(N)c3ccccc3n2)c1.Cl : 100

Next molecule, please.
If you can, please state the reported Motility value of OC1CCCCC1C1(NC(=S)Nc2ccccc2)CCCCC1 (stereo unspecified) .
100

---

We begin with a simple list: items and their reported Motility.
- Test system: Onchocerca lienalis
- experiment-summary: MMV: Percent motility assay at a compound concentration of 7.8e-7 M. Activity score legend: 3: Active, 2: Moderately active; 1: Inactive, 0: Toxic
- Assay type: functional
- condition-description: at 0.78 µM

Study these solved cases before continuing.
Cc1ccc(N2C(=O)C3C(C2=O)C2(c4ccccc4)C(=O)C3(c3ccccc3)C(c3ccccc3)=C2c2ccccc2)cc1 (stereo not given) : 100%
CC1CC2=C(CC1CNCCCN(C)C)C(C)(C)CCC2 (stereo not given) : 100%
OC1=C2C(=Nc3ccccc3SC2c2ccc(Br)cc2)c2ccccc21 (stereo not given) : 100%

Provide value of Motility for this record tested with Onchocerca lienalis: CCN1CCN(c2c(C(=O)c3ccccc3)cnc3cc(OC)c(OC)cc23)CC1
100%

Please provide the recorded Motility for CCOc1ccc(-c2nc(NC(=O)c3cccc(S(C)(=O)=O)c3)sc2C)cc1 , tested on Onchocerca lienalis.
100%

Return Motility measured with Onchocerca lienalis given this molecule: O=C(Nc1ccc(-c2nc3cc4ccccc4cc3[nH]2)cc1)c1cccc(Br)c1
100%

Request - read-out Motility | tested on Onchocerca lienalis | molecule CCN(CC)c1cc(C)c2cc(NC(=O)c3cccc(OC)c3)ccc2n1
100%

Please tell me: Motility of CCOc1ccccc1CNC(=O)C1c2ccccc2C(=O)N(CC(C)C)C1c1cccs1 (stereo not given) , system Onchocerca lienalis?
100%

Notebook entry, Onchocerca lienalis assay: Motility of COc1ccc(C2c3ccc4ccccc4c3Oc3ncn(CCCn4ccnc4)c(=N)c32)cc1OC (stereo not given) = ?
100%

Record Cc1cc(Nc2ccc(C)c(Cl)c2)n2nc(C(F)(F)F)nc2n1 : what is its Motility with Onchocerca lienalis?
100%

Enter reported Motility observed with Onchocerca lienalis for Cc1cc(NC(=O)c2ccc(-c3ccccc3)cc2)no1
100%

Form: Entry = COc1cc2cc(C(=O)Nc3ccccc3)c(N)nc2cc1OC | System = Onchocerca lienalis | Motility = ____
100%

# returns recorded Motility (system: Onchocerca lienalis) for CCCCCCc1cc2cc(-c3csc(C=Cc4ccccc4)n3)c(=O)oc2cc1O
100%

Short answer please: Motility, Onchocerca lienalis, entry CC(C)CNC(=O)c1c(N)n(CCc2ccccc2F)c2nc3ccccc3nc12
100%

Tell me reported Motility for Cc1ccc(Nc2nc(NCCO)c3ccccc3n2)cc1C , tested with Onchocerca lienalis.
100%

Missing value: Motility, Onchocerca lienalis, entry CCOC(=O)C1=C(c2ccccc2)N=c2sc(=Cc3cc(C)n(-c4ccc(F)cc4)c3C)c(=O)n2C1c1cccc(OC)c1OC (stereo not given) . Fill in?
100%

Param readout= Motility; system= Onchocerca lienalis; entry= CCOc1c(Cl)cc(CNCC(O)c2ccccc2)cc1OC (stereo not given) ; returns value.
100%

Could you share what Motility was measured for Cc1ccc(-c2cc3c(nn2)-c2ccccc2C3=O)cc1 , tested on Onchocerca lienalis?
100%

Fill in the recorded Motility for this molecule, with Onchocerca lienalis as test system: CCn1nc(-c2ccc(C(=O)OC)cc2)nc2c(=O)n(C)c(=O)nc1-2
100%

Please provide the recorded Motility for COc1ccc(C)c2sc(N(Cc3cccnc3)C(=O)c3ccc(C#N)cc3)nc12 , tested on Onchocerca lienalis.
100%

I'm curious: which Motility was measured for CC(C)(C)CC(C)(C)NCC(O)COc1ccc2c(c1)CCC2.Cl (stereo not given) tested on Onchocerca lienalis?
100%

Motility of CCCn1c(=N)c(C(=O)NC2CCCCC2)cc2c(=O)n3cccc(C)c3nc21 on Onchocerca lienalis?
100%

So what Motility did CCOC(=O)c1cnc2c(C)cccc2c1Nc1ccc(C(C)=O)cc1 get with Onchocerca lienalis?
100%

Lab request: please report Motility under test system Onchocerca lienalis for CCCCNc1nc(NC(C)(C)C)nc(NC(C)(C)C)n1
100%
